Biological target: T1, mouse BMP9 (mouse, UniProt Q9WV56 319-428, limits assumed)
T1 construct: also called murine BMP9; mouse BMP9 (iPROT101715)
T1 sequence (looked up): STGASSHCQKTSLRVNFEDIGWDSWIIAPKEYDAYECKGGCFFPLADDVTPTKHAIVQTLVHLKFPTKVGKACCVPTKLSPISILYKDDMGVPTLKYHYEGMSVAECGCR
Experiment: MSD-SET solution equilibrium titration
quantity: pKd
Reminder that pKd is minus the log10 of a molar concentration.

These solved cases illustrate the format of a correct answer.
# binder, readout.value
records = [
    ("Antibody BMP9-6: MOR022965 (antibody, human IgG1, kappa, V domains shown, Fully human, phage display) VH: QVQLVQSGAEVKKPGSSVKVSCKASGGTFSSYAISWVRQAPGQGLEWMGHIIPHWGHARYAQKFQGRVTITADESTSTAYMELSSLRSEDTAVYYCARSASSLPHFHWFDYWGQGTLVTVSS VL: DIQMTQSPSSLSASVGDRVTITCRASQDINNYLNWYQQKPGKAPKLLIYAASRLQSGVPSRFSGSGSGTDFTLTISSLQPEDFATYYCQQRDTTPWTFGQGTKVEIKR", 10.16),
    ("Antibody BMP9-9: MOR023796 (antibody, human IgG1, lambda, V domains shown, Fully human, phage display) VH: QVQLVQSGAEVKKPGSSVKVSCKASGGTFSDYAIHWVRQAPGQGLEWMGGIIPFFGTAYYAQKFQGRVTITADESTSTAYMELSSLRSEDTAVYYCARRIVSDSVAVQYRHAFDPWGQGTLVTVSS VL: QSVLTQPPSVSGAPGQRVTISCSGSSSNIGSNYVYWYQQLPGTAPKLLIYGNNNRPSGVPDRFSGSKSGTSASLAITGLQAEDEADYYCNAWDTKAYVWVFGGGTKLTVLG", 9.38),
    ("Antibody BMP9-8: MOR023793 (antibody, human IgG1, kappa, V domains shown, Fully human, phage display) VH: QVQLVQSGAEVKKPGASVKVSCKASGYTFTSYYMNWVRQAPGQGLEWMGWINPVQGNTNYAQKFQGRVTMTRDTSISTAYMELSRLRSEDTAVYYCARNYFDVWGQGTLVTVSS VL: DIQMTQSPSSLSASVGDRVTITCRASQTISNFLAWYQQKPGKAPKLLIYAASNLQSGVPSRFSGSGSGTDFTLTISSLQPEDFAVYYCQQLYAESITFGQGTKVEIKR", 9.36),
    ("Antibody BMP9-3: MOR023795 (antibody, human IgG1, lambda, V domains shown, Fully human, phage display) VH: EVQLVQSGAEVKKPGESLKISCKGSGYSFTTYWIGWVRQMPGKGLEWMGIIYPEGSYTTYSPSFQGQVTISADKSISTAYLQWSSLKASDTAMYYCARGKRVDASSFDYWGQGTLVTVSS VL: QSVLTQPPSVSGAPGQRVTISCSGSSSNIGDNYVSWYQQLPGTAPKLLIYRNNKRPSGVPDRFSGSKSGTSASLAITGLQAEDEADYYCSSTDKEHLVFGGGTKLTVLG", 10.23),
]

Query pKd for Antibody BMP9-1: AM0100 (antibody, human IgG1, kappa, V domains shown, also called 4E10D7-AM0100) VH: QVQLVQSGAEVKKPGASVKVSCKASGYTFTRYWMHWVRQAPGQGLEWMGEINPSQGGTNYNEKFKSRVTMTVDKSISTAYMELSRLRSDDTAVYYCAIGSNYGGLVYWGQGTLVTVSS VL: EIVLTQSPATLSLSPGERATLSCRASESLDNYGISFMNWFQQKPGQAPRFLIYAASNQGSGIPARFSGSGSGTDFTLTISSLQPEDTAVYFCQQSKEVPRTFGGGTKVEIKR
10.14
